This collection of values is drawn from the supplement of paper PMC6757056.

B1: library; a variant is named by its letters at N, in order (parent)
chain: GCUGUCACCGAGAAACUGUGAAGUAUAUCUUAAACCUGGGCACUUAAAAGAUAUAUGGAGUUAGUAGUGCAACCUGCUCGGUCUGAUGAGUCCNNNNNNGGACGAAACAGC

Variants of: B1
experiment.description: normalized RNA/DNA level with ligand (relative to sTRSVctl = 100) (log10 (% of sTRSVctl)); HEK293T; ligand: cyclic di-GMP (c-di-GMP-II aptamer); ligand concentration (+) RNA-Seq: 1 mM; higher = less ribozyme self-cleavage, higher mRNA level
assay.conditions: reporter: mCherry (pCS4076), ligand present: yes
outcome.measure: normalized RNA/DNA level with ligand (log10)

Here are 5 variants together with their reported answers.
1) AGCUUG    1.81
2) AGUGAG    1.67
3) GUGGUG    1.83
4) GAGUCA    1.9
5) CCACGC    1.83

Consider the record given below.
Exam item: Recorded normalized RNA/DNA level with ligand (log10) for `GUCGAA` , please?
Marked response: 1.65
